Each entry below lists one item and its recorded IC50 value.
Target: human liver glycogen phosphorylase a (HLGPa) (Homo sapiens)
Construct: made in house; host or cells: E. coli XL-1 Blue (pKK233-2) or Sf9 insect cells (pBlueBac III baculovirus)
Sequence (P06737 2-847 limits assumed): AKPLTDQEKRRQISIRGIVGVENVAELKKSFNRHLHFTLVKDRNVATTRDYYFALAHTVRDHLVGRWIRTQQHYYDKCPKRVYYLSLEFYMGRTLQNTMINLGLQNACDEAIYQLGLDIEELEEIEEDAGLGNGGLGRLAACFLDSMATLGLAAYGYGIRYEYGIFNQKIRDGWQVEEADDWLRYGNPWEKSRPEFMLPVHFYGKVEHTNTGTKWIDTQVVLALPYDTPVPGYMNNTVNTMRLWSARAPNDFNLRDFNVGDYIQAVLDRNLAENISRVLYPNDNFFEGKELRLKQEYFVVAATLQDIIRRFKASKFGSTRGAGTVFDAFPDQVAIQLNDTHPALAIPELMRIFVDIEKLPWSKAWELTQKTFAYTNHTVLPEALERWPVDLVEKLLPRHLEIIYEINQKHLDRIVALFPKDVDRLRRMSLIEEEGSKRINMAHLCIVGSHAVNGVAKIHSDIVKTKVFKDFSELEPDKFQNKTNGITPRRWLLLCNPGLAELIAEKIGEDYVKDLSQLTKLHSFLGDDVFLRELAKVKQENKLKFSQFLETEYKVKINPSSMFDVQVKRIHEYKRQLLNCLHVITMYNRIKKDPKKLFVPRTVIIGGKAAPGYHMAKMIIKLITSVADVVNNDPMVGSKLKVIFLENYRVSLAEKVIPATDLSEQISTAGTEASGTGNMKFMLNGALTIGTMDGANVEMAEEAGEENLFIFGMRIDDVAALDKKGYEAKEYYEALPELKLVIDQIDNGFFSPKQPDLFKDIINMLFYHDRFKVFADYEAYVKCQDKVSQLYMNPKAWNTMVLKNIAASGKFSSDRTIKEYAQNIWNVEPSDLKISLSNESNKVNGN
Assay: GPa activity assay, reverse direction (inorganic phosphate release from glucose-1-phosphate), human liver isoform
Format: biochemical
Details: reverse direction assay; HLGPa; read-out: HLGPa IC50
assayEndpoint: IC50 (nM)

> print(dat)
                               smilesstring  result
1  CON(C)C(=O)[C@H](O)[C@H](Cc1ccccc1)NC(=O)c1cc2cc(Cl)ccc2[nH]1      51
2  CN(CCO)C(=O)[C@H](O)[C@H](Cc1ccccc1)NC(=O)c1cc2cc(Cl)ccc2[nH]1     152

Numbers sourced from patent US5952322A.
